study-system: Phosphatidylinositol 4,5-bisphosphate 3-kinase catalytic subunit beta isoform (Homo sapiens)
Sequence (P42338 whole entry, canonical isoform): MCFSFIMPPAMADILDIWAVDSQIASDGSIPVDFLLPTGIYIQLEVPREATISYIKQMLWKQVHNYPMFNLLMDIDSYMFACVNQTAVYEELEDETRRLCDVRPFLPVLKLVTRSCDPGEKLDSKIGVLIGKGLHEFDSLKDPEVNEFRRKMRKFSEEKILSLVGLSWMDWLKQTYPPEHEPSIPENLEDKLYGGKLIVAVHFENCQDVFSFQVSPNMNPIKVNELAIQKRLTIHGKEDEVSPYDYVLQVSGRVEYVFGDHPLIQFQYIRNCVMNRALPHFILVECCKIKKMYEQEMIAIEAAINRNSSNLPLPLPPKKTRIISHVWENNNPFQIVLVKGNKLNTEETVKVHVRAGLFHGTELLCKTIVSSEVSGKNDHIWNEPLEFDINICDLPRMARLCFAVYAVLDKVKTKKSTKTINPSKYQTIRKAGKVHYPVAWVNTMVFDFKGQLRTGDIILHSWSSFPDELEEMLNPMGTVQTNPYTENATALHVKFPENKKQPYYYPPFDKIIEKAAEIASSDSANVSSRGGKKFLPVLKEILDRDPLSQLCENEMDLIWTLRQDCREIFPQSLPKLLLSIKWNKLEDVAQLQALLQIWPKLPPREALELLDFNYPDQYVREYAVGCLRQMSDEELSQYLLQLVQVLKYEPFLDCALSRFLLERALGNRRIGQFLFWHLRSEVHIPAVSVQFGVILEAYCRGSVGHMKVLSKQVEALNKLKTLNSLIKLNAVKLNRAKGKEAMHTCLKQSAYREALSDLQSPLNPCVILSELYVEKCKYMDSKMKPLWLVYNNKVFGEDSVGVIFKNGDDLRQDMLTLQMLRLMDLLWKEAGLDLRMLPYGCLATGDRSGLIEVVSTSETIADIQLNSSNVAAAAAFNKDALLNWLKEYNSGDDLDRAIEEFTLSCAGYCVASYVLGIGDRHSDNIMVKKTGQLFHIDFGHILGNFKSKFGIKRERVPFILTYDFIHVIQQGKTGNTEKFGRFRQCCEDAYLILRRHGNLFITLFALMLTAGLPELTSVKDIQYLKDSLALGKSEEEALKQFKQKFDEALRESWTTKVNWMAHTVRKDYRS
assay-overview: Inhibition of PI3Kbeta (unknown origin) incubated for 60 mins by kinase-glo luminescence assay
readout: pIC50
pIC50 is a log-scale quantity: -log10 of the concentration expressed in molar.

Study these solved cases before continuing.
smiles-entry | pIC50
O=c1nc(N2CCOCC2)oc2c(-c3cccc4c3sc3ccccc34)cccc12 | 5.24
O=c1nc(N2CCOCC2)oc2c(-c3cccc4c3oc3ccccc34)cccc12 | 5.16
O=c1nc(N2CCOCC2)oc2c(-c3ccc(CO)cc3)cccc12 | 5.49

Q: Quick one: pIC50 for Nc1cccc(-c2cccc3c(=O)nc(N4CCOCC4)oc23)c1 ?
Ans: 5.00

Q: Quick one: pIC50 for O=c1nc(N2CCOCC2)oc2c(-c3cccc4ccccc34)cccc12 ?
Ans: 5.30

Q: Quick one: pIC50 for O=c1nc(N2CCOCC2)oc2c(-c3ccsc3)cccc12 ?
Ans: 5.47

###

assay-overview: Cytotoxicity against human UACC257 cells assessed as cell growth inhibition at 10 uM after 48 hrs by SRB assay relative to control
Type: functional
measurement-conditions: UACC-257, 48 h, read-out: GI
// values below are reported inhibition of growth at 10 µM
A number alone suffices; assume %.

smiles-entry | units-label | inhibition of growth at 10 µM
COc1ccc(-c2cccc3c(=O)nc(N4CCOCC4)oc23)cc1 | % | 4.28
O=c1nc(N2CCOCC2)oc2c(-c3cccs3)cccc12 | % | 3.74
O=c1nc(N2CCOCC2)oc2c(-c3cccc4ccccc34)cccc12 | % | 3.51
O=c1nc(N2CCOCC2)oc2c(-c3ccsc3)cccc12 | % | 1.24
O=c1nc(N2CCOCC2)oc2ccc(-c3cccc4c3sc3ccccc34)cc12 | % | 4.51
NC(=O)c1ccc(-c2cccc3c(=O)nc(N4CCOCC4)oc23)cc1 | % | -3.78

Q: Quick one: inhibition of growth at 10 µM for O=c1nc(N2CCOCC2)oc2c(-c3cccc4c3oc3ccccc34)cccc12 ?
Ans: -3.42

Q: Quick one: inhibition of growth at 10 µM for O=c1nc(N2CCOCC2)oc2c(-c3cccc4c3sc3ccccc34)cccc12 ?
Ans: 5.04

###

Tested on: CCRF-CEM
assay-overview: Cytotoxicity against human CCRF-CEM cells assessed as cell growth inhibition at 10 uM after 48 hrs by SRB assay relative to control
Assay type: functional
measurement-conditions: read-out: GI
Returns one of yes (1) or no (0); yes (1) when inhibition of growth at 10 µM is >= 9%.

smiles-entry | label
O=c1nc(N2CCOCC2)oc2c(-c3cccc4c3oc3ccccc34)cccc12 | yes (1)
O=c1nc(N2CCOCC2)oc2c(-c3cccc4ccccc34)cccc12 | no (0)
COc1ccc(-c2cccc3c(=O)nc(N4CCOCC4)oc23)cc1 | no (0)
NC(=O)c1ccc(-c2cccc3c(=O)nc(N4CCOCC4)oc23)cc1 | no (0)
O=c1nc(N2CCOCC2)oc2ccc(-c3cccc4c3sc3ccccc34)cc12 | no (0)
O=c1nc(N2CCOCC2)oc2c(-c3cccs3)cccc12 | no (0)

Next up:
Q: Assess whether reported inhibition of growth at 10 µM for O=c1nc(N2CCOCC2)oc2c(-c3cccc4c3sc3ccccc34)cccc12 sits at 9% or higher.
Ans: yes (1)
